system: Pax6 DNA-binding domain (BD-Pax6) (Mus musculus (B6), UniProt P63015 190-289)
Sequence (P63015 190-289): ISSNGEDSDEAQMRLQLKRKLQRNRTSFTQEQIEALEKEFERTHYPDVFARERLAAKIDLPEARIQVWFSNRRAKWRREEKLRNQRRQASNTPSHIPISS
measurement description: EMSA; 10% glycerol, 20 mM HEPES pH 7.8, 45 mM KCl, 10 mM NaCl, 1 mM EDTA, 1 mM DTT, 0.2 ug/uL BSA, 0.1% NP-40, 50 ng poly-dIdC; 20 ng each GST protein; room temperature 30 min (heterodimers 4 C); 6% PAGE 0.25x TBE
test settings: protein: recombinant; tags: GST (N-terminal, pGEX-6P-1); label: 32P-dCTP fill-in of the 5' (dG)5 overhangs of both strands (Methods; control probes are given with GGG)
outcome measure: binding result

Known results for binders:
binder	result
4c (dsDNA) DNA 1: GGGGGTAAAATTAACAAACAAGTTACATTATCTAATATACACCCCC DNA 2: GGGGGTGTATATTAGATAATGTAACTTGTTTGTTAATTTTACCCCC	no binding
33 (dsDNA) DNA 1: GGGGGATAGTACATTTGTTGTCATTAACAAATCAGTCCCCC DNA 2: GGGGGACTGATTTGTTAATGACAACAAATGTACTATCCCCC	binds
123 (dsDNA) DNA 1: GGGGGAGTGCTATTTTGTCGAGAAATTGTAGAAGACACCCCC DNA 2: GGGGGTGTCTTCTACAATTTCTCGACAAAATAGCACTCCCCC	no binding
12 (dsDNA) DNA 1: GGGGGAGTATGAGTTTGTATATGTTGATTAACCAAACACTCCCCC DNA 2: GGGGGAGTGTTTGGTTAATCAACATATACAAACTCATACTCCCCC	no binding
74 (dsDNA) DNA 1: GGGGGGACTTTCTTGGCGGATTTGGTAACGACAAAGTTAGGATCCCCC DNA 2: GGGGGATCCTAACTTTGTCGTTACCAAATCCGCCAAGAAAGTCCCCCC	no binding

input: Return value of binding result for input 126 (dsDNA) DNA 1: GGGGGAATGTTGTCATAATTGAAAAAGACAAAGCACTAATCCCCC DNA 2: GGGGGATTAGTGCTTTGTCTTTTTCAATTATGACAACATTCCCCC , no commentary.
output: binds

input: Return value of binding result for input 79 (dsDNA) DNA 1: GGGGGTGATAGTAACAAAAACCATTTTGTTTTTGGCTCCCCC DNA 2: GGGGGAGCCAAAAACAAAATGGTTTTTGTTACTATCACCCCC , no commentary.
output: no binding

input: Return value of binding result for input 95 (dsDNA) DNA 1: GGGGGGGTTTTCTTTTGTACACTTAATATCCGCTGGGGCCCCC DNA 2: GGGGGCCCCAGCGGATATTAAGTGTACAAAAGAAAACCCCCCC , no commentary.
output: binds

input: Return value of binding result for input 92 (dsDNA) DNA 1: GGGGGATATAATAATAAATCTTTAAAACAAAAAAAAAAACCCCC DNA 2: GGGGGTTTTTTTTTTTGTTTTAAAGATTTATTATTATATCCCCC , no commentary.
output: binds
